biological target: Trace amine-associated receptor 1 (Homo sapiens); experiment: Agonist activity at recombinant human TAAR1 expressed in CHO-K1 cells assessed as increase in intracellular cAMP incubated for 30 mins by HTRF analysis
Sequence (Q96RJ0 whole entry): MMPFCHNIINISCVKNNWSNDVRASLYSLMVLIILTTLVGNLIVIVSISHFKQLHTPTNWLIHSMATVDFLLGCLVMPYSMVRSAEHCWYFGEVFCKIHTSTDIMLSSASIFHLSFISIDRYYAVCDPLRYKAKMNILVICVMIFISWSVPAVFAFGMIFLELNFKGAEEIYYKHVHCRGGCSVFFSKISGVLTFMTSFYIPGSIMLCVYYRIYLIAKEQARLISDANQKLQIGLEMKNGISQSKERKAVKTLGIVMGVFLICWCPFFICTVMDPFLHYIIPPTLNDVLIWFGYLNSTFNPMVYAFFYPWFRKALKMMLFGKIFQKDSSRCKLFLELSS
EC50 vs 20 nM: less than gives true; not less than gives false.

Compound	Group
NCC[C@@H]1OCCc2ccsc21	false

Identify whether the compound CNCC1OCCc2cscc21 (stereo not given) records EC50 below 20 nM.
false

Hello, is EC50 of the following compound strictly smaller than 20 nM? `NC[C@@H](O)c1ccc(O)cc1`
false

Lab log: compare recorded EC50 with 20 nM; is it strictly lower for `NCCc1ccsc1` ?
false

Is EC50 of `NC[C@@H]1OCCc2ccsc21` strictly below 20 nM?
true
